tested on: U-251; experiment: Growth inhibition of human U251 cells after 48 hrs by sulforhodamine B assay; type: functional; details: U-251, 48 h, read-out: pTGI (converted)
property-label: TGI (µM)

>>> assay_result("COc1ccc(/C=C2/NC(=O)N(CC(=O)Nc3cc(C(F)(F)F)ccc3Cl)C2=O)cc1")
63.1
>>> assay_result("COc1ccc(/C=C2/NC(=O)N(CC(=O)Nc3cccc(C(F)(F)F)c3)C2=O)cc1")
69.2
>>> assay_result("O=C(CN1C(=O)N/C(=C\\c2ccc(Cl)cc2)C1=O)Nc1ccc(Cl)cc1")
29.5

Every entry's value here was drawn from ChEMBL document CHEMBL1153575.
